test: Half life in rat at 1 mg/kg, iv; type: ADME, organism-based; parameters: dose 1 mg/kg, route intravenous; conditions: in vivo
propertyMeasured: half-life

[Q] Can you look up the measured half-life of `CNC(=O)[C@@H](NC(=O)c1ccc(-c2cccc(CNC(=O)c3ccnc(C(F)(F)F)n3)c2)o1)C1CC1` for me?
[A] 42 min

// moving on: another record for half-life
[Q] Fill in the blank: the reported half-life of `CNC(=O)[C@@H](NC(=O)c1ccc(-c2cccc(CNC(=O)c3ccnc(C(F)(F)F)n3)c2)o1)C(C)(C)O` is ____.
[A] 57 min

----------
test: Selectivity ratio of IC50 for MMP3 to IC50 for MMP13
Below, each entry is listed alongside its reported Ratio IC50.
Provide a numeric answer; units are not to be included.

[Q] Please report the recorded Ratio IC50 for `CNC(=O)[C@H](NC(=O)c1ccc(-c2cccc(CNC(=O)c3ccco3)c2)o1)C1CCCCC1` .
[A] 15

[Q] Find the recorded Ratio IC50 belonging to `CNC(=O)[C@@H](NC(=O)c1ccc(-c2cccc(CNC(=O)c3cccc(C(F)(F)F)n3)c2)o1)C(C)C` and report it.
[A] 1000

[Q] So what does the record say about Ratio IC50 for `CNC(=O)[C@H](NC(=O)c1ccc(-c2cccc(CNC(=O)c3ncccc3C)c2)o1)C1CCCCC1` ?
[A] 85

[Q] Reported Ratio IC50, compound `CNC(=O)[C@@H](NC(=O)c1ccc(-c2cccc(CNC(=O)c3cccc(C(F)(F)F)n3)c2)o1)C1CCOCC1` : ____
[A] 330

[Q] Could you share which Ratio IC50 value was measured for `CNC(=O)[C@H](NC(=O)c1ccc(-c2cccc(CNC(=O)c3ccoc3C)c2)o1)C1CCCCC1` ?
[A] 9

----------
assay: Aqueous solubility of the compound at pH 7.4; format: physicochemical; conditions: aqueous medium
propertyMeasured: solubility

[Q] So what's the measured solubility for this one? `CNC(=O)[C@@H](NC(=O)c1ccc(-c2cccc(CNC(=O)c3ccnc(C(F)(F)F)n3)c2)o1)C(C)(C)O`
[A] > 50 µg/mL

----------
assay: Selectivity ratio of IC50 for MMP2 to IC50 for MMP13
Reported Ratio IC50 values follow for various compounds

Worked cases, Ratio IC50 given:
[Q] Data request, read-out Ratio IC50, for `CNC(=O)[C@@H](NC(=O)c1ccc(-c2cccc(CNC(=O)c3cccc(C(F)(F)F)n3)c2)o1)C(C)C`
[A] > 3600

[Q] I'd like to know its Ratio IC50. The compound in question is `CNC(=O)[C@@H](NC(=O)c1ccc(-c2cccc(CNC(=O)c3cccc(C(F)(F)F)n3)c2)o1)C1CCOCC1`
[A] 1500

[Q] Requested read-out: Ratio IC50. Entry: `CNC(=O)[C@H](NC(=O)c1ccc(-c2cccc(CNC(C)=O)c2)o1)C1CCCCC1`
[A] 5

---
[Q] // query Ratio IC50 value for entry `CNC(=O)[C@H](NC(=O)c1ccc(-c2cccc(CNC(=O)c3ccoc3C)c2)o1)C1CCCCC1`
[A] > 61

[Q] Any idea what its Ratio IC50 is? The compound is `CNC(=O)[C@H](NC(=O)c1ccc(-c2cccc(CNC(=O)c3cccc(C)n3)c2)o1)C1CCCCC1`
[A] > 4900

[Q] # lookup: Ratio IC50 of `CNC(=O)[C@H](NC(=O)c1ccc(-c2cccc(CNC(=O)c3ccncc3)c2)o1)C1CCCCC1`
[A] 310

[Q] Form field: reported Ratio IC50 of `CNC(=O)[C@H](NC(=O)c1ccc(-c2cccc(CNC(=O)c3ccn(C)n3)c2)o1)C1CCCCC1`
[A] > 430
